Can you tell me K0.5-mut/K0.5-wt for the items I'm about to list?
- ASSAY_SYSTEM: Antithrombin III (plasma purified human AT-III, Molecular Innovations)
- ASSAY_EXPLANATION: same assay; ratio to recombinant wild-type FIXa (Catalyst Biosciences WT)
Numbers only.

Field: example entries. Status: answers known.
PROTEIN	K0.5-mut/K0.5-wt
FIXa-D203N/F205T/R338E/R403E (protein) chain 1: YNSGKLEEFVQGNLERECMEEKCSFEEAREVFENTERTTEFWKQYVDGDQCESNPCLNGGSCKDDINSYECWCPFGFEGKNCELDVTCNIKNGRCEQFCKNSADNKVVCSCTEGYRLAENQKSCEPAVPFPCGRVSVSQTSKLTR chain 2: VVGGEDAKPGQFPWQVVLNGKVNATCGGSIVNEKWIVTAAHCVETGVKITVVAGEHNIEETEHTEQKRNVIRIIPHHNYNAAINKYNHDIALLELDEPLVLNSYVTPICIADKEYTNIFLKFGSGYVSGWGRVFHKGRSALVLQYLRVPLVDRATCLESTKFTIYNNMFCAGFHEGGRDSCQGDSGGPHVTEVEGTSFLTGIISWGEECAMKGKYGIYTKVSEYVNWIKEKTKLT	78.6
FIXa-R318Y/R338E/E410N (protein) chain 1: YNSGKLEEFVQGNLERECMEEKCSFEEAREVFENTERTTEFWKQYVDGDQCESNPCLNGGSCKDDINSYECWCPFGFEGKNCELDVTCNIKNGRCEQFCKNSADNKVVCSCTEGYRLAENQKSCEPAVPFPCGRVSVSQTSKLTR chain 2: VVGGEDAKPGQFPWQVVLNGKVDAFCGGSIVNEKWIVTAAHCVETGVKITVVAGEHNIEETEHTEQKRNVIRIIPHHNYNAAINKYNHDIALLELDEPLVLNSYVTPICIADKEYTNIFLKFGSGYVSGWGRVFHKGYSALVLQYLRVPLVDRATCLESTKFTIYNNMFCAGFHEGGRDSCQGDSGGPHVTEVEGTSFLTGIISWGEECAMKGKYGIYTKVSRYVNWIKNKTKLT	179
FIXa-D203N/F205T/K228N (protein) chain 1: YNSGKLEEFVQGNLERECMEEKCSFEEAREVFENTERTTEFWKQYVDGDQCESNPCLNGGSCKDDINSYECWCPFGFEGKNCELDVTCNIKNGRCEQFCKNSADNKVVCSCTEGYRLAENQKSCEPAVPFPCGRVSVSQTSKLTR chain 2: VVGGEDAKPGQFPWQVVLNGKVNATCGGSIVNEKWIVTAAHCVETGVNITVVAGEHNIEETEHTEQKRNVIRIIPHHNYNAAINKYNHDIALLELDEPLVLNSYVTPICIADKEYTNIFLKFGSGYVSGWGRVFHKGRSALVLQYLRVPLVDRATCLRSTKFTIYNNMFCAGFHEGGRDSCQGDSGGPHVTEVEGTSFLTGIISWGEECAMKGKYGIYTKVSRYVNWIKEKTKLT	42.5

Please find the next protein below.
Reported K0.5-mut/K0.5-wt, protein FIXa-D104N/K106S/R318Y/R338E/E410N (protein) chain 1: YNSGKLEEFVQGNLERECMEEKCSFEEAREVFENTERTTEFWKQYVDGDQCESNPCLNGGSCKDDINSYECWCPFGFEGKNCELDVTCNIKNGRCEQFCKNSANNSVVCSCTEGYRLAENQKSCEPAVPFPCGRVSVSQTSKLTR chain 2: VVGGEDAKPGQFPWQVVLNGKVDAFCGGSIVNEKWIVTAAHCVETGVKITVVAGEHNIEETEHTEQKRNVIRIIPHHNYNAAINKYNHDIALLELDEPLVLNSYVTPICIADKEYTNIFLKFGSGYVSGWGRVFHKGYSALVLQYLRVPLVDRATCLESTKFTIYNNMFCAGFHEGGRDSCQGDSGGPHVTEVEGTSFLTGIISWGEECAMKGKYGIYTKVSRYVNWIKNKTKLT : ____
327
